Items are presented alongside their recorded pKd.
Biological target: Cdc42 Δ7 Q61L (UniProt P60953)
Assay: scintillation proximity assay (competition); 30 nM GST-WT ACK GBD immobilised on protein A SPA fluoromicrospheres via an anti-GST antibody, 30 nM [3H]GTP-Cdc42; increasing concentrations of GST-cleaved ACK variant; pure competition model, apparent Kd (Ki)
The quantity pKd is defined as the negative base-10 logarithm of the molar concentration.

The examples below pair each entry with its known result.
Qu. Tell me the measured pKd of GLSAQDASQPLQNSFIHTGHGDSDPRHCWGFPDRIDELYLGN (domain or fragment) [ACK GBD I454A, cleaved from GST] , please.
Ans. 4.70

Qu. Ok, now GLSAQDIAQPLQNSFIHTGHGDSDPRHCWGFPDRIDELYLGN (domain or fragment) [ACK GBD S455A, cleaved from GST]
Ans. 6.12

Qu. Now this one: GLSAQDISQALQNSFIHTGHGDSDPRHCWGFPDRIDELYLGN (domain or fragment) [ACK GBD P457A, cleaved from GST]
Ans. 5.42

Qu. Same thing, different binder: GLSAQDISQPLQNSFIATGHGDSDPRHCWGFPDRIDELYLGN (domain or fragment) [ACK GBD H464A, cleaved from GST]
Ans. 5.60

Qu. Quick one: GLSAQDISQPLQNSFIHTGHGDSDP (domain or fragment) [ACK GBD Δ17, cleaved from GST]
Ans. 5.32

---
Qu. Quick one: pKd for GLSAQDISQPLQNSFIHTGAGDSDPRHCWGFPDRIDELYLGN (domain or fragment) [ACK GBD H467A, cleaved from GST] ?
Ans. 5.75

These data points were gathered from paper PMC5500802.
